target: Inadl_8, Q8NI35; experiment: holdup assay; set-up: key: below the threshold = too weak to quantify, mostly under pKd 3.1 to 4; details: plain residues with an end cap or a label only (N-terminal biotin on a linker: ado-ado)
Sequence (Q8NI35 1425-1530): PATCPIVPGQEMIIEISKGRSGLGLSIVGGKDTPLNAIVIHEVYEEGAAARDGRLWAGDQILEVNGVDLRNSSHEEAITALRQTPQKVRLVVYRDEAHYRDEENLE
result.type: pKd

These solved cases illustrate the format of a correct answer.
binder: PEKVSNTTVV [IGSF5, Q9NSI5]
pKd: below the threshold

binder: GQNMTVSVVI [PRLHR, P49683]
pKd: 3.8

binder: PLATCDETSI [SEMA4F, O95754]
pKd: below the threshold

binder: EKPIDSETKM [SLC1A3, P43003]
pKd: below the threshold

# evaluate next
Task: Request the reported pKd associated with RSPVATATSC [DUSP5, Q16690]
Result: below the threshold

Origin of values: paper PMC9482650
